# percentage damage caused to the plant (AMAPA) values compiled below
Test system: Amaranthus palmeri (AMAPA)
Assay: Pre-emergence herbicidal activity, percentage damage to AMAPA
Assay type: in vivo
Conditions: 1000 g/Ha, evaluated after 13 days, glasshouse
VALUE TYPE: percentage damage caused to the plant (AMAPA)

O=C(O)C[C@@H]1[C@@H]2C[C@@H]2C(=O)N1Cc1cccc(F)c1F (relative stereo) ... 2 (21-40%)
O=C(O)C[C@@H]1[C@@H]2CCCC[C@@H]2C(=O)N1Cc1cccc(F)c1F (relative stereo) ... 3 (41-60%)
O=C(O)C[C@@H]1[C@@H]2C[C@@H]2C(=O)N1Cc1cccc(Cl)c1 (relative stereo) ... 1 (0-20%)
O=C(O)C[C@@H]1[C@@H]2C[C@@H]2C(=O)N1Cc1ccc(F)cc1 (relative stereo) ... 4 (61-80%)
O=C(O)C[C@H]1[C@@H]2CCCC[C@@H]2C(=O)N1Cc1cccc(F)c1F (relative stereo) ... 4 (61-80%)
O=C(O)C[C@@H]1[C@@H]2C[C@@H]2C(=O)N1Cc1ccc(F)c(F)c1F (relative stereo) ... 3 (41-60%)
O=C(O)C[C@@H]1[C@@H]2C[C@@H]2C(=O)N1Cc1cccc(F)c1 (relative stereo) ... 4 (61-80%)
COC(=O)C[C@H]1[C@@H]2C[C@@H]2C(=O)N1Cc1cccc(F)c1F (relative stereo) ... 2 (21-40%)
O=C(O)C[C@@H]1[C@@H]2C[C@@H]2C(=O)N1Cc1ccc(F)c(Cl)c1 (relative stereo) ... 2 (21-40%)
O=C(O)C[C@@H]1[C@@H]2C[C@@H]2C(=O)N1Cc1ccccc1F (relative stereo) ... 4 (61-80%)
O=C(O)C[C@@H]1[C@@H]2C[C@@H]2C(=O)N1Cc1ccc(F)c(F)c1 (relative stereo) ... 3 (41-60%)
